test system: NCI-H226; experiment: NCI tumour cell line growth inhibition, 48 h
The source made the active and inactive calls. Rule as the data show it: active = GI50 up to about 1.1 µM and inactive = higher.
Each entry below lists one item and its recorded GI50 value.

Query: Requested read-out GI50, target or system NCI-H226, entry CC(c1ccc2c(c1)CCC1C2CC2OC23CC=CC(=O)[C@]13C)C1C[C@]2(C)O[C@]2(C)[C@H](O)O1 (stereo not given in full)
Response: 12.1 µM (inactive)

Query: What do you get for CN1CCN(C(=S)N2CCN(C)CC2)CC1 ?
Response: > 100 µM (inactive)

Query: What do you get for Nc1nc(I)nc2c1ncn2C1OC(COS(N)(=O)=O)C(O)C1O (stereo not given) ?
Response: < 0.01 µM (active)

Query: What do you get for BrCC(Br)(c1ccccc1)c1ccccc1-c1cc(-c2ccccc2)cc(-c2ccccc2)n1 (stereo not given) ?
Response: 3.72 µM (inactive)

Query: What do you get for O=C(COc1ccc(Cl)c(Cl)c1)Nc1ccc[n+](Cc2ccc(S(=O)(=O)F)c(Cl)c2)c1 ?
Response: > 100 µM (inactive)

Query: What do you get for CCc1c2c(cc3c1CC1(C3)Cc3cc4c(c(C(=O)OC)c3C1)CCCC4)CCCC2 (stereo not given) ?
Response: > 100 µM (inactive)

###

system: SK-MEL-2; assay: NCI tumour cell line growth inhibition, 48 h
The source made the active and inactive calls. Rule as the data show it: active = GI50 up to about 1.1 µM and inactive = higher.
Each entry below lists one item and its recorded GI50 value.

Query: Which GI50 reading was recorded for the compound O=C1/C(=C/c2ccccc2)N=C2Sc3c([nH]cnc3=O)N12 ?
Response: > 100 µM (inactive)

Query: What do you get for COc1ccc2c(c1)OC1c3ccccc3OCC21 (stereo unspecified) ?
Response: > 100 µM (inactive)

---
Query: Which GI50 reading was recorded for the compound Cc1nc2cccc(F)c2c(=O)n1C1CCCCNC1=O (stereo unspecified) ?
Response: > 10 µM (inactive)

Query: What do you get for NS(=O)(=O)c1cc(S(N)(=O)=O)c(NC(=O)Nc2ccc(Cl)c(Cl)c2)c(Cl)c1Cl ?
Response: > 100 µM (inactive)

Query: What do you get for N#Cc1[nH]c(=S)[nH]c1N ?
Response: > 100 µM (inactive)

Query: What do you get for Cc1cn(CCOCCOC(=O)NC(CCCNC(=N)N)C(=O)O)c(=O)[nH]c1=O (stereo unspecified) ?
Response: > 100 µM (inactive)

###

tested on: SK-MEL-5; assay: NCI tumour cell line growth inhibition, 48 h
The source made the active and inactive calls. Rule as the data show it: active = GI50 up to about 1.1 µM and inactive = higher.
Returns: one label drawn from yes (1) = active, no (0) = inactive

Examples with answers:
Query: I would be grateful if you could indicate the recorded call for N#CC12C(=O)N=C(N)C1(C#N)C(c1ccco1)NC1=C2CCCC1 (configuration not stated) .
Response: no (0)

Query: What do you get for CC(C)(C)C1=CC(CCC(=O)Nc2ccccc2[N+](=O)[O-])=NC(S)N1 (configuration not stated) ?
Response: no (0)

Query: What do you get for CS(=O)(=O)OCCN(CCOS(C)(=O)=O)c1ccc(/C=N/c2ccc(-c3csc(Cc4ccccc4)n3)cc2)c(Cl)c1 ?
Response: no (0)

Okay, next one:
Query: I would be grateful if you could indicate the recorded call for Cc1c(CN2CCN(C)CC2)c(CN2CCN(C)CC2)c(C)n1-c1ccc(Cl)cc1 .
Response: no (0)

###

tested on: NCI-H23; test: NCI tumour cell line growth inhibition, 48 h
Activity calls are given as the source filed them. Cut-off read from the data, not from the text of the source: active = GI50 up to about 1.1 µM and inactive = higher.
Each entry below lists one item and its recorded GI50 value.

Illustrative cases are given below, each with its answer.
Query: Which GI50 reading was recorded for the compound CCOC(=N)CC(=O)Nc1ccccc1CC ?
Response: > 100 µM (inactive)

Query: What do you get for O=[N+]([O-])c1cc([N+](=O)[O-])c(C(Cl)C(Cl)c2ccccc2)cc1C(Cl)C(Cl)c1ccccc1 (stereo not given) ?
Response: 1.65 µM (inactive)

Query: What do you get for CSc1nc(C)c(CCOC(C)=O)c(N=P(c2ccccc2)(c2ccccc2)c2ccccc2)n1 ?
Response: 3.77 µM (inactive)

---
Query: Which GI50 reading was recorded for the compound CS(=O)(=O)c1ccc(-c2cc(-c3ccc(S(C)(=O)=O)cc3)[n+](-c3cc(-c4ccccc4)c([O-])c(-c4ccccc4)c3)c(-c3ccc(S(C)(=O)=O)cc3)c2)cc1 ?
Response: > 100 µM (inactive)

Query: What do you get for N#Cc1c(N)oc(-c2ccc([N+](=O)[O-])cc2)c1C#N ?
Response: 23.8 µM (inactive)

###

tested on: U-251; assay: NCI tumour cell line growth inhibition, 48 h
Calls of active or inactive are those of the source. Rule as the data show it: active = GI50 up to about 1.1 µM and inactive = higher.
Returns: one label drawn from yes (1) (active), no (0) (inactive)

Query: I would be grateful if you could indicate the recorded call for CC(=O)O[C@H]1/C(=C/c2ccncc2)C[C@H]2[C@@H]3CC=C4C[C@@H](N5CCCC5)CC[C@]4(C)[C@H]3CC[C@]12C .
Response: no (0)

Query: What do you get for C=C(C)C(=O)O[C@H]1C[C@@]23O[C@@H]2CCC(=C[C@H]2OC(=O)C(=C)[C@H]12)COC3O (some centres undefined) ?
Response: no (0)

Query: What do you get for CS(=O)(=O)OCCN(CCOS(C)(=O)=O)c1ccc(/C=N/c2ccc(-c3csc(Cc4ccccc4)n3)cc2)c(Cl)c1 ?
Response: no (0)

Query: What do you get for O=c1ccn([C@H]2CSC[C@@H](CO)C2)c(=O)[nH]1 ?
Response: no (0)

Query: What do you get for CCOC(=O)CNc1c(OCc2ccccc2)c(=O)c1=O ?
Response: no (0)

Query: What do you get for CN(Cc1cnc2nc(N)nc(N)c2n1)c1ccc(C(=O)N[C@@H](CCC(=O)O)C(=O)O)cc1 [METHOTREXATE] ?
Response: yes (1)

Query: What do you get for Cc1cccc(/C=C2\CCCc3ccccc3C2=O)c1 ?
Response: no (0)

Query: What do you get for COC(=O)/C(=C/c1ccc(OC)cc1)C(C(=O)O)=C1CCCCC1 ?
Response: no (0)

Okay, next one:
Query: I would be grateful if you could indicate the recorded call for CCN(CC)CCCNc1ccc([N+](=O)[O-])c2nc3ccc(OC)cc3c(N)c12 .
Response: no (0)

###

system: LOX IMVI; assay: NCI tumour cell line growth inhibition, 48 h
Calls of active or inactive are those of the source. Rule as the data show it: active = GI50 up to about 1.1 µM and inactive = higher.
Returns: one label drawn from label 1 = active, label 0 = inactive

Examples with answers:
Query: I would be grateful if you could indicate the recorded call for Cc1csc2c1C(=O)c1ccsc1C2=O .
Response: label 0

Query: What do you get for CC(=O)Oc1ccc(/C=C/C(=O)OCCOC(=O)/C=C/c2ccc(OC(C)=O)c(OC(C)=O)c2)cc1OC(C)=O ?
Response: label 0

Query: What do you get for Cc1cc(S(=O)(=O)Nc2nc3cscc3c(=O)n2N)c(S)cc1Cl ?
Response: label 0

---
Query: I would be grateful if you could indicate the recorded call for COC(=O)c1c(O)ccc2c1c1c(n2Cc2ccccc2)C(=O)c2ccccc2C1 .
Response: label 0

Query: What do you get for N=C(N)CCNC(=O)C1CCC(N)=N1 (centres undefined) ?
Response: label 0

Query: What do you get for O=C(Nc1ccccc1)C(=O)C(C(=O)c1ccccc1)C(c1ccccc1)c1ccccc1 (centres undefined) ?
Response: label 0

Query: What do you get for COc1cc(/C=C2\N=C(c3ccccc3)N(c3ccc(C(=O)c4ccccc4)cc3N3C(=O)/C(=C/c4ccc(O)c(OC)c4)N=C3c3ccccc3)C2=O)ccc1O ?
Response: label 0

Query: What do you get for NN/C(=N\S(=O)(=O)c1cccc2nsnc12)Nc1ccc(Cl)cc1 ?
Response: label 0

Query: What do you get for CCCCc1ccc(Nc2nc(Cl)c3ccn(C4CC(Oc5ccc(C)cc5)C(COc5ccc(C)cc5)O4)c3n2)cc1 (centres undefined) ?
Response: label 0

Query: What do you get for CC(=O)NNc1nc(C)c(C(=O)/C=C/c2ccc(Cl)c(Cl)c2)s1 ?
Response: label 0

Query: What do you get for O=C(/C=C/c1c[nH]c2ccccc12)c1ccccc1O ?
Response: label 0

###

test system: SN12C; test: NCI tumour cell line growth inhibition, 48 h
Calls of active or inactive are those of the source. No stated cut-off is given here; in the data, active = GI50 up to about 1.1 µM and inactive = higher.
ENDPOINT_NAME: GI50

Query: Which GI50 reading was recorded for the compound N#C[BH2-][n+]1cn(C2CC(O)C(COP(=O)(O)OC3CC(n4cnc5c(N)ncnc54)OC3CO)O2)c2nc(N)[nH]c(=O)c21 (stereo not given) ?
Response: > 100 µM (inactive)

---
Query: Which GI50 reading was recorded for the compound C=CCN1C(=O)/C(=C/c2ccc(OC)cc2)NC1=S ?
Response: > 100 µM (inactive)

###

tested on: KM12; test: NCI tumour cell line growth inhibition, 48 h
Calls of active or inactive are those of the source. Cut-off read from the data, not from the text of the source: active = GI50 up to about 1.1 µM and inactive = higher.
Each entry below lists one item and its recorded GI50 value.

Query: Which GI50 reading was recorded for the compound N[C@@H](CCC(=O)NCP(=O)(O)O)C(=O)O ?
Response: > 100 µM (inactive)

Query: What do you get for c1ccc(Nc2nnc(CSc3nc(-c4ccccc4)c(-c4ccccc4)[nH]3)s2)cc1 ?
Response: 21.1 µM (inactive)

Query: What do you get for CC(=O)OC(C)(C)C1CCC(C)(C(O)COc2ccc(CCNC(=O)c3ccccc3)cc2)O1 (stereo unspecified) ?
Response: 60.8 µM (inactive)

Query: What do you get for O=C1c2ccccc2C(=O)N1n1c(Cc2ccc([N+](=O)[O-])cc2)n[nH]c1=O ?
Response: > 100 µM (inactive)

Query: What do you get for COc1ccc(OCC(=O)O)c2c1CCC(C)C2=O (stereo unspecified) ?
Response: > 100 µM (inactive)

Query: What do you get for CC(Oc1ccccc1Cl)C(=O)NN1C(=O)CSC1c1ccc(Cl)cc1 (stereo unspecified) ?
Response: 18.1 µM (inactive)

Query: What do you get for COc1cc2c(c(OC)c1OC)-c1ccc(SC)c(=O)cc1C(NC=O)CC2 (stereo unspecified) ?
Response: < 0.01 µM (active)

Query: What do you get for CCc1c2c(cc3c1CC1(C3)Cc3cc4c(c(C(=O)OC)c3C1)CCCC4)CCCC2 (stereo unspecified) ?
Response: > 100 µM (inactive)

Query: What do you get for Cc1nc2cccc(F)c2c(=O)n1C1CCCCNC1=O (stereo unspecified) ?
Response: > 10 µM (inactive)

Query: What do you get for Cc1cc(S(=O)(=O)Nc2nc(Nc3ccccc3)n[nH]2)c(SCC(=O)O)cc1Cl ?
Response: > 100 µM (inactive)

---
Query: Which GI50 reading was recorded for the compound O=C(c1cccc(F)c1F)N1CCc2c([nH]c3ccccc23)C1c1ccc2c(c1)OCO2 (stereo unspecified) ?
Response: 4.92 µM (inactive)

Query: What do you get for O=C(N/N=C(COc1ccccc1Cl)\N=C\c1ccncc1)c1ccncc1 ?
Response: > 100 µM (inactive)

Query: What do you get for CC(=O)C(I(OS(=O)(=O)c1ccc(C)cc1)c1ccccc1)=P(c1ccccc1)(c1ccccc1)c1ccccc1 ?
Response: 16.2 µM (inactive)

Query: What do you get for CCN(CC)CCCNc1ccc([N+](=O)[O-])c2nc3ccc(OC)cc3c(N)c12 ?
Response: 1.57 µM (inactive)

Query: What do you get for COc1ccc(SS(=O)(=O)c2ccc(OC)cc2)cc1 ?
Response: 16.5 µM (inactive)

Query: What do you get for Cc1cn(C2OC(CO[Si](C)(C)C(C)(C)C)C(N(C)O[Si](C)(C)C(C)(C)C)C2[Se]c2ccccc2)c(=O)[nH]c1=O (stereo unspecified) ?
Response: 3.66 µM (inactive)

Query: What do you get for c1cc(CN2CCNCCNCCNCC2)cc(CN2CCNCCNCCNCC2)c1 ?
Response: > 100 µM (inactive)

Query: What do you get for COc1cccc(CC(C)N)c1 (stereo unspecified) ?
Response: > 100 µM (inactive)

Query: What do you get for CCOC(=O)c1c(Sc2ccc([N+](=O)[O-])cc2[N+](=O)[O-])nc2c3ccccc3ccn12 ?
Response: > 100 µM (inactive)
